Field: Emax. Provide a value for each of the compounds that follow.
TARGET_SYSTEM: hNurr1_RXRαFL (NURR1/RXRα heterodimer) (Homo sapiens, UniProt P19793+P43354)
Sequence (P19793 whole entry, the tested form may be a part): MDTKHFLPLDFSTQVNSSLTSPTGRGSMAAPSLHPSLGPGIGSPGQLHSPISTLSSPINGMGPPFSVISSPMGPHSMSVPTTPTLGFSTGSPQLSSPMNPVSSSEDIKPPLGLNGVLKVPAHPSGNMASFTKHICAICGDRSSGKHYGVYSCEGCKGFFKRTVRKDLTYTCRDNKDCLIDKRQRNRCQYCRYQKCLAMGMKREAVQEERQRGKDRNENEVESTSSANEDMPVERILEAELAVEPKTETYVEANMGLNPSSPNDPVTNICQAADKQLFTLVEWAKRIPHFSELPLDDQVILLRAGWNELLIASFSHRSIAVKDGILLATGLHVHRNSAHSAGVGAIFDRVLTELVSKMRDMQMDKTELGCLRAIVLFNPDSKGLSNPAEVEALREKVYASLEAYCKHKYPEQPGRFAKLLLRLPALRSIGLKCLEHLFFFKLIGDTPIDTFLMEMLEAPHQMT
Sequence (P43354 328-598): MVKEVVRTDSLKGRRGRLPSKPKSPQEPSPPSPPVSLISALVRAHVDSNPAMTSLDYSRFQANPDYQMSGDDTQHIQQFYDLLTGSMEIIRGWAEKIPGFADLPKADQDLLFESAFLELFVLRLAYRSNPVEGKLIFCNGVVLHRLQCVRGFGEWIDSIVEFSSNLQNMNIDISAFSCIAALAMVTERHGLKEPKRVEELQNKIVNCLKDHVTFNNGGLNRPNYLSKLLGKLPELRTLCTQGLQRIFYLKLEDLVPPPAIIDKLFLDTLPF
METHOD_DESCRIPTION: Transactivation assay in Cos-7 cells, NURR-1-Gal4 / RXRα, luciferase reporter
Type: cell-based
TEST_CONTEXT: COS-7, read-out: hNurr1_RXRαFL Eff (%), efficacy in % relative to the reference XCT0135908 at 2·10^−5 M (=100%)
Description: First, the capacity of the compounds according to the invention for acting as an activator of the heterodimers formed by the NURR-1 nuclear receptor and the RXR nuclear receptors was measured by an in vitro assay. A transactivation assay was used as a primary screening assay. […] After 24 hours, the culture medium was changed. […] After overnight incubation, luciferase expression was measured after addition of “SteadyGlo” according to the manufacturer's instructions (Promega). […]
One number for each entry, in %.

In [3]: df
Out[3]:
                                   compound                             target_system  measured_result
0  CC(C)(C)c1cccc(S(=O)(=O)n2c(C(=O)c3ccc(C(=O)O)s3)cc3cc(C(F)(F)F)ccc32)c1  hNurr1_RXRαFL (NURR1/RXRα heterodimer) (Homo sapiens, UniProt P19793+P43354)              106
1  O=C(O)c1ccc(Cc2cc3cc(C(F)(F)F)ccc3n2S(=O)(=O)c2ccc(OC(F)(F)F)cc2)cc1  hNurr1_RXRαFL (NURR1/RXRα heterodimer) (Homo sapiens, UniProt P19793+P43354)               38
2  COC(=O)c1ccc(Cc2cc3cc(C(F)(F)F)c(F)cc3n2S(=O)(=O)c2cccc(C(C)(C)C)c2)cc1  hNurr1_RXRαFL (NURR1/RXRα heterodimer) (Homo sapiens, UniProt P19793+P43354)               92

Let us examine a further case.
Returns the measured Emax for the input compound. Input: CC(C)(C)c1cccc(S(=O)(=O)n2c(C(F)c3ccc(C(=O)O)cc3)cc3cc(C(F)(F)F)ccc32)c1 (stereo not shown)
83

---

TARGET_SYSTEM: hNurr1_RXRαFL (NURR1/RXRα heterodimer) (Homo sapiens, UniProt P19793+P43354)
METHOD_DESCRIPTION: Transactivation assay in Cos-7 cells, NURR-1-Gal4 / RXRα, luciferase reporter
Assay type: cell-based
TEST_CONTEXT: COS-7, read-out: hNurr1_RXRαFL Eff (%), efficacy in % relative to the reference XCT0135908 at 2·10^−5 M (=100%)
MEASUREMENT_LABEL: Emax (%)
One number for each entry, in %.

In [3]: df
Out[3]:
                                   molecule  measured_result
0  O=C(O)c1ccc(Cc2cc3cc(Cl)ccc3n2S(=O)(=O)c2ccc(C(F)(F)F)cc2)cc1 [Example 158]               66
1  O=C(O)c1ccc(Cc2cc3cc(C(F)(F)F)ccc3n2S(=O)(=O)c2ccc(-c3ccccc3)s2)cc1 [Example 14]               69
2  CC1(C)CCc2cc(S(=O)(=O)n3c(Cc4ccc(C(=O)O)cc4)cc4cc(C(F)(F)F)ccc43)ccc2O1 [Example 132]               45
3  Cc1cccc(S(=O)(=O)n2c(Cc3ccc(C(=O)O)cc3)cc3cc(Cl)ccc32)c1 [Example 161]               59
4  COC(=O)c1ccc(Cc2cc3ccccc3n2S(=O)(=O)c2cccc(C(C)(C)C)c2)cc1 [Example 194]               42

Batch request: Emax per item, same order as input.
1. O=C(O)c1ccc(Cc2cc3cc(Cl)ccc3n2S(=O)(=O)c2ccc(Oc3ccccc3)nc2)cc1 [Example 175]
2. Cc1cccc(S(=O)(=O)n2c(Cc3ccc(C(=O)O)cc3)cc3cc(C(F)(F)F)ccc32)c1 [Example 141]
3. O=C(O)c1ccc(Cc2cc3cc(Cl)ccc3n2S(=O)(=O)c2ccc(-c3ccccc3)cc2)cc1 [Example 151]
4. CC(C)(CO)c1cccc(S(=O)(=O)n2c(Cc3ccc(C(=O)O)cc3)cc3cc(C(F)(F)F)ccc32)c1 [Example 231]
5. O=C(O)c1ccc(Cc2cc3cc(Cl)ccc3n2S(=O)(=O)c2cccc(F)c2)cc1 [Example 154]
6. CC(C)(C)c1cccc(S(=O)(=O)n2c(Cc3ccc(-c4nn[nH]n4)cc3)cc3cc(C(F)(F)F)ccc32)c1 [Example 221]
7. COc1cccc(S(=O)(=O)n2c(Cc3ccc(C(=O)O)cc3)cc3cc(Cl)ccc32)c1 [Example 166]

38
41
80
81
68
66
50

Batch request: Emax per item, same order as input.
1. Cc1c(Cc2ccc(C(=O)O)cc2)n(S(=O)(=O)c2cccc(C(C)(C)C)c2)c2ccc(C(F)(F)F)cc12 [Example 189]
2. CC(C)CCc1ccc(S(=O)(=O)n2c(Cc3ccc(C(=O)O)cc3)cc3cc(C(F)(F)F)ccc32)cc1 [Example 128]
3. CC(C)(C)c1cccc(S(=O)(=O)n2c(Cc3ccc(F)c(C(=O)O)c3)cc3cc(C(F)(F)F)ccc32)c1 [Example 210]

[83, 44, 70]
